B1: Osa-1-4 twister ribozyme (parent)
chain: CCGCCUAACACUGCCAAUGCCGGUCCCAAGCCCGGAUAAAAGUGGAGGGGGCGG

- Variants of: B1
- experiment summary: self-cleavage, relative activity (ratio to wild type); higher = more cleavage; co-transcriptional
attribute measured: self-cleavage
Output spec: single numeric token, no unit.

Can you look up the measured self-cleavage of CCGCCUAACACCGCCAAUGCCGGUCCCAACCCCGGAUAAAAGUGGAGGGGGCGG [G30C U12C] for me?
0.03

Which measured self-cleavage value corresponds to CCGCCUAACACUGCCAAUUCCGGUCCCAAGUCCGGAUAAAAGUGGAGGGGGCGG [C31U G19U] ?
0.05

Field request: self-cleavage | item: CCGCCUAACACUGCCAAUGCCGGUCCCAAGAGCGGAUAAAAGUGGAGGGGGCGG [C31A C32G]
0.02

Each recorded value in this set is attributed to the RNAGym collection of RNA variant scans (doi:10.1002/anie.201605470).
